molecular target: Androgen Receptor (Homo sapiens); construct: endogenous in cells; host or cells: VCaP cells; test: Androgen Receptor ELISA assay (PathScan AR ELISA) in VCaP cells: AR degradation, Dmax and DC50; type: cell-based; details: VCaP, read-out: VCaP Dmax (%)
measurement name: Dmax

molecule smiles	Dmax
Cc1ncoc1-c1ccc(CNC(=O)[C@@H]2C[C@@H](O)CN2C(=O)[C@@H](NC(=O)COCCCCOc2ccc(-c3ccc(N4C(=S)N(c5ccc(C#N)c(C(F)(F)F)c5)C(=O)C45CCC5)cc3)cc2)C(C)(C)C)cc1	51 to 70%

Next:
### Prompt Reported Dmax, compound "Cc1ncsc1-c1ccc(CNC(=O)[C@@H]2C[C@@H](O)CN2C(=O)[C@@H](NC(=O)CO[C@H](C)[C@@H](C)OCCOCCOc2ccc(N3C(=S)N(c4ccc(C#N)c(C(F)(F)F)c4)C(=O)C3(C)C)cc2)C(C)(C)C)cc1" : ____
### Response 26 to 50%

* * *

target: Androgen Receptor (Homo sapiens, UniProt P10275); construct: endogenous in cells; host or cells: VCaP cells; assay: Androgen Receptor ELISA assay (PathScan AR ELISA) in VCaP cells: AR degradation, Dmax and DC50; assay type: cell-based; conditions: VCaP cells; Table 36; read-out: VCaP DC50
Sequence (P10275 whole entry): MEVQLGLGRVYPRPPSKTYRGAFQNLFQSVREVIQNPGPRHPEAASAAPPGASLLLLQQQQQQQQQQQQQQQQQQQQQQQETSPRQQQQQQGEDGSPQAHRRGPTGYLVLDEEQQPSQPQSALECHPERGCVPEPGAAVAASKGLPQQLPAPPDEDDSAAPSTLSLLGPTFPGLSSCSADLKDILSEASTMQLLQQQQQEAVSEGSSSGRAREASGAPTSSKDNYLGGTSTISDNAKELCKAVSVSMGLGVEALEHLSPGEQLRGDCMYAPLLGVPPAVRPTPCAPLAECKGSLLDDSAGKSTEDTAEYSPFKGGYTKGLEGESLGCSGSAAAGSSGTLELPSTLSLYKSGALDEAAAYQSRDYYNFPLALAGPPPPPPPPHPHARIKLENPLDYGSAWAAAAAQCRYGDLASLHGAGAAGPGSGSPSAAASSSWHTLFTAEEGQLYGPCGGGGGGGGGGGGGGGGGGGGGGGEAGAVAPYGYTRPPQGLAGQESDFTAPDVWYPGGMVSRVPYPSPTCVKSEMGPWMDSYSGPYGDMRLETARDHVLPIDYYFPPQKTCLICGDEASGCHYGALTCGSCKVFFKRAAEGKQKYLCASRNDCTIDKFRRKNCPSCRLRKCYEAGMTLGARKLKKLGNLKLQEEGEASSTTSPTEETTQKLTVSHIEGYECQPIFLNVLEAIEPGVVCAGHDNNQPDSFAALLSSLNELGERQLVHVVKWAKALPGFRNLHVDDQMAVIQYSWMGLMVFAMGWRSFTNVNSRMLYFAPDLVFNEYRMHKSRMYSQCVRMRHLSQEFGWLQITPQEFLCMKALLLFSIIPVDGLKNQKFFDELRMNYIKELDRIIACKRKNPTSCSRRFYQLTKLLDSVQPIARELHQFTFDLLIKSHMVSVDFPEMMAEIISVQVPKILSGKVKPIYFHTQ
measurement name: DC50

compound	subject of test	DC50
Cc1ncsc1-c1ccc([C@@H](NC(=O)[C@@H]2C[C@@H](O)CN2C(=O)[C@@H](NC(=O)CN2CCN(CCCc3ccc(C(=O)N[C@H]4C(C)(C)[C@H](Oc5ccc(C#N)c(C(F)(F)F)c5)C4(C)C)cc3)CC2)C(C)(C)C)C2COC2)cc1	Androgen Receptor (Homo sapiens, UniProt P10275)	< 50 nM
Cc1ncsc1-c1ccc([C@H](C)NC(=O)[C@@H]2C[C@@H](O)CN2C(=O)C(c2cc(CCN3CCN(c4ccc(C(=O)N[C@H]5C(C)(C)[C@H](Oc6ccc(C#N)c(Cl)c6)C5(C)C)cn4)CC3)no2)C(C)C)cc1 (stereo partly shown)	Androgen Receptor (Homo sapiens, UniProt P10275)	< 50 nM
CC(C)(C)[C@H](NC(=O)COCCN1CCN(c2ccc(C(=O)N[C@H]3C(C)(C)[C@H](Oc4ccc(C#N)c(Cl)c4)C3(C)C)cn2)CC1)C(=O)N1C[C@H](O)C[C@H]1C(=O)NCc1ccc(C2CCCC2)cc1	Androgen Receptor (Homo sapiens, UniProt P10275)	> 501 nM

Next:
### Prompt Reported DC50, compound Cc1ncsc1-c1ccc(CNC(=O)[C@@H]2C[C@@H](O)CN2C(=O)C(NC(=O)COCCN2CCN(c3ccc(C(=O)N[C@H]4C(C)(C)[C@H](Oc5ccc(C#N)c(C(F)(F)F)c5)C4(C)C)cn3)C(=O)C2)C(C)(C)C)cc1 (stereo partly shown) [Example 703] : ____
### Response > 501 nM

* * *

biological target: Androgen Receptor (Homo sapiens); construct: endogenous in cells; host or cells: VCaP cells; experiment: Androgen Receptor ELISA assay (PathScan AR ELISA) in VCaP cells: AR degradation, Dmax and DC50; format: cell-based; conditions: VCaP, read-out: VCaP Dmax (%)
measurement name: Dmax

compound	subject of test	measurement name	recorded result
Cc1ncsc1-c1ccc(CNC(=O)[C@@H]2C[C@@H](O)CN2C(=O)[C@@H](NC(=O)COCCCCOc2ccc(-c3ccc(N4C(=S)N(c5ccc(C#N)c(C(F)(F)F)c5)C(=O)C4(C)C)cc3)c(F)c2)C(C)(C)C)cc1 [Example 149]	Androgen Receptor (Homo sapiens)	Dmax	> 71%

### Prompt Reported Dmax, compound Cc1ncsc1-c1ccc(CNC(=O)[C@@H]2C[C@@H](O)CN2C(=O)[C@@H](NC(=O)COCCCOCCCCOc2ccc(N3C(=S)N(c4ccc(C#N)c(C(F)(F)F)c4)C(=O)C3(C)C)cc2F)C(C)(C)C)cc1 [Example 27] : ____
### Response > 71%

### Prompt Reported Dmax, compound Cc1ncsc1-c1ccc(CNC(=O)[C@@H]2C[C@@H](O)CN2C(=O)[C@@H](NC(=O)CCOCCOc2ccc(-c3ccc(N4C(=S)N(c5ccc(C#N)c(C(F)(F)F)c5)C(=O)C4(C)C)cc3)nc2)C(C)(C)C)cc1 [Example 87] : ____
### Response 26 to 50%

### Prompt Reported Dmax, compound Cc1ncsc1-c1ccc(CNC(=O)[C@@H]2C[C@@H](O)CN2C(=O)[C@@H](NC(=O)COCCC[C@@H](C)Oc2ccc(-c3ccc(N4C(=S)N(c5ccc(C#N)c(C(F)(F)F)c5)C(=O)C4(C)C)cc3)cc2)C(C)(C)C)cc1 [Example 141] : ____
### Response > 71%

### Prompt Reported Dmax, compound C[C@H](NC(=O)[C@@H]1C[C@@H](O)CN1C(=O)[C@@H](NC(=O)COCCCCOc1ccc(-c2ccc(N3C(=S)N(c4ccc(C#N)c(Cl)c4)C(=O)C3(C)C)cc2)cc1)C(C)(C)C)c1ccc(-c2cnco2)cc1 [Example 132] : ____
### Response > 71%

### Prompt Reported Dmax, compound Cc1ncsc1-c1ccc([C@H](CO)NC(=O)[C@@H]2C[C@@H](O)CN2C(=O)[C@@H](NC(=O)COCCN2C3CCC2CN(c2ccc(C(=O)N[C@H]4C(C)(C)[C@H](Oc5ccc(C#N)c(Cl)c5)C4(C)C)cn2)C3)C(C)(C)C)cc1 [Example 821] : ____
### Response > 71%

### Prompt Reported Dmax, compound Cc1ncsc1-c1ccc(CNC(=O)[C@@H]2C[C@@H](O)CN2C(=O)[C@@H](C(C)C)n2cc(OC3CCN(c4ccc(-c5ccc(N6C(=S)N(c7ccc(C#N)c(C(F)(F)F)c7)C(=O)C6(C)C)cc5)cn4)CC3)cn2)cc1 [Example 599] : ____
### Response 26 to 50%

### Prompt Reported Dmax, compound Cc1ncsc1-c1ccc([C@H](C)NC(=O)[C@@H]2C[C@@H](O)CN2C(=O)C(C(C)C)n2cnc(-c3ccnc(N4CC[C@H](Oc5ccc(N6C(=S)N(c7ccc(C#N)c(C(F)(F)F)c7)C(=O)C6(C)C)cc5)C4)c3)c2)cc1 (some centres unmarked) [Example 617] : ____
### Response < 25%

* * *

target: Androgen Receptor (Homo sapiens, UniProt P10275); construct: endogenous in cells; host or cells: VCaP cells; assay: Androgen Receptor ELISA assay (PathScan AR ELISA) in VCaP cells: AR degradation, Dmax and DC50; type: cell-based; conditions: VCaP, read-out: VCaP Dmax (%)
Collected Dmax values appear next to each entry.

Completed entries (count: 3):
compound	subject of test	Dmax
Cc1ncsc1-c1ccc([C@H](C)NC(=O)[C@@H]2C[C@@H](O)CN2C(=O)[C@H](C(C)C)n2cc(Oc3cccc(OCCCCCOc4ccc(N5C(=S)N(c6ccc(C#N)c(C(F)(F)F)c6)C(=O)C5(C)C)cc4)c3)cn2)nc1	Androgen Receptor (Homo sapiens, UniProt P10275)	< 25%
Cc1ncsc1-c1ccc([C@H](C)NC(=O)[C@@H]2C[C@@H](O)CN2C(=O)[C@@H](NC(=O)COCCCOCCCCCOc2ccc(N3C(=S)N(c4ccc(C#N)c(C(F)(F)F)c4)C(=O)C3(C)C)cc2F)C(C)(C)C)cc1	Androgen Receptor (Homo sapiens, UniProt P10275)	51 to 70%
Cc1ncsc1-c1ccc(CNC(=O)[C@@H]2C[C@@H](O)CC2C(=O)[C@H](C(C)C)N2Cc3ccccc3C2=O)c(OCCOC2CCCC[C@@H]2OCCOc2ccc(N3C(=S)N(c4ccc(C#N)c(C(F)(F)F)c4)C(=O)C3(C)C)cc2)c1 (stereo partly shown)	Androgen Receptor (Homo sapiens, UniProt P10275)	26 to 50%

Next:
### Prompt Reported Dmax, compound "Cc1ncsc1-c1ccc(CNC(=O)[C@@H]2C[C@@H](O)CN2C(=O)[C@@H](NC(=O)COCCCCOCCCOc2ccc(N3C(=S)N(c4ccc(C#N)c(C(F)(F)F)c4)C(=O)C3(C)C)cc2)C(C)(C)C)cc1" : ____
### Response > 71%

* * *

target: Androgen Receptor (Homo sapiens, UniProt P10275); construct: endogenous in cells; host or cells: VCaP cells; test: Androgen Receptor ELISA assay (PathScan AR ELISA) in VCaP cells: AR degradation, Dmax and DC50; type: cell-based; details: read-out: VCaP DC50; concentration that caused 50% Androgen Receptor degradation, VCaP cells
measurement name: DC50

molecule smiles	measurement name	recorded result
Cc1ncsc1-c1ccc(CNC(=O)[C@@H]2C[C@@H](O)CN2C(=O)[C@@H](NC(=O)CCCCOc2ccc(-c3ccc(N4C(=S)N(c5ccc(C#N)c(C(F)(F)F)c5)C(=O)C4(C)C)cc3)cc2)C(C)(C)C)cc1	DC50	51 to 500 nM

Next:
### Prompt Reported DC50, compound "CC(C)(C)[C@H](NC(=O)COCC#CC#CCOc1ccc(N2C(=S)N(c3ccc(C#N)c(C(F)(F)F)c3)C(=O)C2(C)C)cc1F)C(=O)N1C[C@H](O)C[C@H]1C(=O)NCc1ccc(-c2cnco2)cc1" : ____
### Response 51 to 500 nM
